test_summary: NCI Yeast Anticancer Drug Screen. Data for the bub3 strain (AID 167)
details: S. cerevisiae bub3 mutant strain, at 50.0 µM (retest, dose inferred, filed as 5.0)
Protocol: Growth inhibition of yeast strains with defined genetic alterations is measured as a screen for potential anti-cancer activity. Selected strains with alterations in DNA damage repair or cell cycle control were exposed to compounds and growth inhibition was measured relative to vehicle treated controls. The strain used in this assay is bub3
This is part of a sample that, as a whole, favours compounds with a hit. Of some 79,000 tested, about 15% had one in any assay. Activity calls are given as the source filed them. Cut-off read from the data, not from the text of the source: active = growth inhibition above about 70%; inactive = the rest.
Classes used: TRUE = active, FALSE = inactive

{"molecule": "COC(=O)C1c2c(C)cc3n2C(C=CC3)C1C(=O)OC (stereo not drawn)", "label": "TRUE"}
{"molecule": "COc1ccc2nc3ccccc3c(NCCCCN(C)CCCl)c2c1", "label": "TRUE"}
{"molecule": "CC(=O)O[C@H]1C(=O)O[C@@H]2C[C@H]3C(C)=CC(=O)[C@@H](O)[C@]3(C)[C@H]3[C@@]4(O)OC[C@]32[C@@H]1[C@@H](C)[C@H]4O", "label": "TRUE"}
{"molecule": "O=[N+]([O-])c1ccc(NP(=S)(Nc2ccc([N+](=O)[O-])cc2)c2ccccc2)cc1", "label": "TRUE"}
{"molecule": "CC/C(=C/c1ccc(OC)cc1)[N+](=O)[O-]", "label": "TRUE"}
{"molecule": "N#CS.[Ag]", "label": "TRUE"}
{"molecule": "CC(C)CC(C)(c1ccc(O)cc1)c1ccc(O)cc1", "label": "TRUE"}
{"molecule": "CC(C)CCC1(CCSC(=O)S)C(=O)NC(=O)NC1=O", "label": "FALSE"}
{"molecule": "O=C1C(=O)C(Br)(Br)C(Br)=C1Br", "label": "FALSE"}
{"molecule": "C[CH2][Sn]([CH2]C(=O)OC)([CH2]C(=O)OC)[c]1ccccc1", "label": "TRUE"}
{"molecule": "CC1c2c(n(C)c3ccccc23)C2CCC3(CO3)C1N2Cc1ccccc1 (stereo not drawn)", "label": "TRUE"}
{"molecule": "COc1cc(C2c3cc4c(cc3OC(N3CCOCC3)C2C)OCO4)cc(OC)c1OC (stereo not drawn)", "label": "FALSE"}
{"molecule": "O=c1oc2cc(O)ccc2c(O)c1C(c1ccc(/C=C/c2ccccc2)cc1)c1c(O)c2ccc(O)cc2oc1=O", "label": "FALSE"}
{"molecule": "O=c1cccc(C2CC(CO)C3CCCCN3C2)[nH]1 (stereo not drawn)", "label": "FALSE"}
{"molecule": "O=C(OCCl)c1ccccc1", "label": "FALSE"}
{"molecule": "CC1CCC2(OC1)OC1C(O)C3C4CCC5CC(OC6OC(CO)C(OC7OC(CO)C(O)C(OC8OCC(O)C(O)C8O)C7OC7OC(CO)C(O)C(OC8OC(CO)C(O)C(O)C8O)C7O)C(O)C6O)C(O)CC5(C)C4CCC3(C)C1C2C (stereo not drawn)", "label": "TRUE"}
{"molecule": "CC(=O)OCC1(N2CCCC2)CCCCC1", "label": "FALSE"}
{"molecule": "CCCNC1=C(C)C(=O)C2=C(C1=O)[C@H](COC(N)=O)[C@]1(OC)[C@@H]3N[C@@H]3CN21", "label": "FALSE"}
